Target or system Tie-2 (Homo sapiens, UniProt Q02763): recorded IC50 listed per item.

{"Smiles Input": "COC(=O)CCn1nc(-c2ccncc2)nc1-c1ccc(OC)c(Cl)c1", "IC50": "≥ 10 µM"}
{"Smiles Input": "COc1ccc(-c2nc(-c3ccncc3)nn2CCN(C(=O)Nc2c(F)cccc2F)C2CCCC2)cc1Cl", "IC50": "≥ 10 µM"}
{"Smiles Input": "COc1ccc(-c2nc(-c3ccncc3)nn2CCN(C(=O)Nc2ccc(C)c(Cl)c2)C2CCCC2)cc1Cl", "IC50": "≥ 10 µM"}

Here is another compound to look at.
# query: IC50 of entry "O=C(Cc1cccc2ccccc12)N(CCn1nc(-c2ccccc2Cl)nc1-c1ccncc1)C1CCCC1"
1 to 10 µM
